- Test system: EHV-4 405/76 reference strain
- assay: RTCA
- Assay type: cell-based, Equid herpesvirus 4
- condition-parameters: 0.4 µM; area under normalized Cell Index curves, 0-120 hpi; EHV-4-infected E. Derm cells
Structures can show the parent of a compound that is named as a salt.
test-readout: AUCn
Give only the figure.

Give a short answer stating reported AUCn for CC(C)[C@H](N)C(=O)OCC(CO)OCn1cnc2c(=O)nc(N)[nH]c21 (some centres unmarked) [Valganciclovir hydrochloride] .
33.79

For the molecule Nc1nc(NC2CC2)c2ncn([C@H]3C=C[C@@H](CO)C3)c2n1 [Abacavir sulfate] , give its reported AUCn.
38.16

Report AUCn, nothing else, for this molecule: `Cc1cn([C@H]2C=C[C@@H](CO)O2)c(=O)[nH]c1=O`
37.85

Tell me measured AUCn for `O=c1[nH]cc(F)c(=O)[nH]1` please.
39.89

For the molecule `CC(C)[C@H](N)C(=O)OCCOCn1cnc2c(=O)[nH]c(N)nc21` , give its reported AUCn.
33.27

Please supply the value of reported AUCn for the item `CC[C@H](C)C(=O)O[C@H]1C[C@H](O)C=C2C=C[C@H](C)[C@H](CC[C@@H](O)C[C@@H](O)CC(=O)O)[C@H]21`
45.23

Fill in reported AUCn for this entry: `CC(C)OC(=O)OCOP(=O)(CO[C@H](C)Cn1cnc2c(N)ncnc21)OCOC(=O)OC(C)C`
34.89

Give AUCn for `O=c1[nH]c(=O)n([C@H]2C[C@H](O)[C@@H](CO)O2)cc1I`
36.8

###

- System: EHV-4 405/76 reference strain
- condition-parameters: ratio of CC50 to EC50 obtained by qPCR
Counter-ions that a name gives are not always drawn.
test-readout: SI (CC50 CellTiter-Glo/EC50 qPCR)

Supply reported SI (CC50 CellTiter-Glo/EC50 qPCR) belonging to this molecule: `Nc1ccn(C[C@@H](CO)OCP(=O)(O)O)c(=O)n1`
>6.26

Kindly indicate its recorded SI (CC50 CellTiter-Glo/EC50 qPCR). Item: `Nc1nc(O)c2ncn(COC(CO)CO)c2n1`
>37.88

Give the reported SI (CC50 CellTiter-Glo/EC50 qPCR) for this molecule. CC(C)[C@H](N)C(=O)OCC(CO)OCn1cnc2c(=O)nc(N)[nH]c21 (stereo partly shown) [Valganciclovir hydrochloride]
>13.89

Name the recorded SI (CC50 CellTiter-Glo/EC50 qPCR) of the molecule listed here: `C[C@@]1(CO)[C@H](O)CC[C@@]2(C)[C@H]1CC[C@H]1C[C@@H]3C[C@@]12CC[C@]3(O)CO`
>161.29

Given `O=c1[nH]c(=O)n([C@H]2C[C@H](O)[C@@H](CO)O2)cc1I` , respond with its SI (CC50 CellTiter-Glo/EC50 qPCR).
>6.68

# return recorded SI (CC50 CellTiter-Glo/EC50 qPCR) for entry `Cc1nc(N(C)C(=O)Cc2ccc(-c3ccccn3)cc2)sc1S(N)(=O)=O`
>15.11

Read off the recorded SI (CC50 CellTiter-Glo/EC50 qPCR) for `Nc1ncn([C@H]2C[C@H](O)[C@@H](CO)O2)c(=O)n1`
>178.57

###

- Test system: EHV-4 405/76 reference strain
- assay: RTCA
- Format: cell-based, Equid herpesvirus 4
- condition-parameters: 0.4 µM; area under normalized Cell Index curves, 0-120 hpi; EHV-4-infected E. Derm cells
So I've got a bunch of molecules here, and I need their AUCn values.
Answer field: number only, no words.

Return AUCn for the following molecule: C[C@H](CCCC(C)(C)O)[C@H]1CC[C@H]2[C@@H]3CC=C4C[C@@H](O)CC[C@]4(C)[C@H]3CC[C@]12C [25-hydroxycholesterol]
39.29

Please indicate AUCn recorded for `CC(C)OC(=O)[C@H](C)N[P@](=O)(OC[C@H]1O[C@@H](n2ccc(=O)[nH]c2=O)[C@](C)(F)[C@@H]1O)Oc1ccccc1`
35.31

Provide only the value of recorded AUCn for `CC(C)Nc1nc2cc(Cl)c(Cl)cc2n1[C@H]1O[C@@H](CO)[C@H](O)[C@@H]1O`
33.80

Hello, please tell me recorded AUCn for this one: NCCCC(N)(C(=O)O)C(F)F (centres unmarked)
44.63

Tell me measured AUCn for `O=c1[nH]cnc2c1ncn2[C@H]1CC[C@@H](CO)O1` please.
37.77

Provide AUCn value for the following molecule: `Nc1ccn(C[C@@H](CO)OCP(=O)(O)O)c(=O)n1`
38.54

Could you please provide reported AUCn for `Nc1ncnc2c1ncn2[C@@H]1O[C@H](CO)[C@@H](O)[C@@H]1O` ? Thanks!
41.3

Annotate the molecule `Cc1nc(N(C)C(=O)Cc2ccc(-c3ccccn3)cc2)sc1S(N)(=O)=O` with its measured AUCn.
27.43

Hey, just so you know, these numbers are from paper PMC11125953.
